B1: Zinc finger homeobox protein 3, residues 2147 to 2202; numbered along this chain, Q15911 (parent)
chain: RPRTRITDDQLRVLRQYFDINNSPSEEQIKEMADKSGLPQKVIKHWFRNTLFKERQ

- Variants of: B1
- ASSAY EXPLANATION: abundance fitness (aPCA) (normalised: wild type 0, dead -1); higher = more abundant; growth selection in yeast, the domain comes from the species named
- CONDITION SUMMARY: Homo sapiens
Entry class follows abundance fitness: band A = under -0.2, band B = from -0.2 up to -0.1, band C = -0.1 and over

Here are 3 variants together with their reported answers.
>  <MUTATION KEY>
K44T

>  <CLASS NAME>
band A

$$$$
>  <MUTATION KEY>
N49L

>  <CLASS NAME>
band B

$$$$
>  <MUTATION KEY>
S23D

>  <CLASS NAME>
band C

$$$$

*Q* Bin this entry: K30R
*A* band B

*Q* Now consider E31A and answer again.
*A* band B

*Q* Now consider K41Y and answer again.
*A* band A

*Q* Now consider N21A and answer again.
*A* band C

*Q* Now consider Q56H and answer again.
*A* band A
